Field: Tmax. Provide a value for each of the substances that follow.
- runDescription: Pharmacokinetic studies in Beagle dogs after oral administration of SNAC-based tablets
- Format: in vivo
- conditionContext: male, Beagle, dog, in vivo; dogs, oral administration (tablet); read-out: Tmax
Starred links: 1 amine or outer side, 2 acyl side, 3 side chain; linkers in the order of their positions; H or OH if unused. Groups on a side chain read outwards from the residue. *: point of attachment. Decanoyl(10-(4-HOOC-PhO)) = O=C(O)c1ccc(OCCCCCCCCCC(=O)*)cc1; γGlu = O=C(O)[C@H](CCC(=O)[*:2])N[*:1]; AEEA = NCCOCCOCC(=O)O
Number only, in h; omit the unit.

Lab note: H-HWEGTFTSDVSSYLEEQAAREFIEWLVRGK([AEEA-AEEA-γGlu-Decanoyl(10-(4-HOOC-PhO))])GEGGGGGASELSTAALGRLSAELHELK([AEEA-AEEA-γGlu-Decanoyl(10-(4-HOOC-PhO))])TLPRTETGSGSP-NH2 [Compound 0234] gave Tmax of 1

Lab note: H-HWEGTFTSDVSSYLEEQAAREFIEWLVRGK([AEEA-AEEA-γGlu-Decanoyl(10-(4-HOOC-PhO))])GEGGGGGASELSTAALGRLSK([AEEA-AEEA-γGlu-Decanoyl(10-(4-HOOC-PhO))])ELHELATLPRTETGSGSP-NH2 [Compound 0233] gave Tmax of 1.5

Lab note: H-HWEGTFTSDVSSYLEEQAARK([AEEA-AEEA-γGlu-Decanoyl(10-(4-HOOC-PhO))])FIEWLVRGRGEGGGGGASELSTAALGRLSAELHELK([AEEA-AEEA-γGlu-Decanoyl(10-(4-HOOC-PhO))])TLPRTETGSGSP-NH2 [Compound 0232] gave Tmax of 0.8

Lab note: H-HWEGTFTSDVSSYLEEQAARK([AEEA-AEEA-γGlu-Decanoyl(10-(4-HOOC-PhO))])FIEWLVRGRGEGGGGGASELSTAALGRLSK([AEEA-AEEA-γGlu-Decanoyl(10-(4-HOOC-PhO))])ELHELATLPRTETGSGSP-NH2 [Compound 0231] gave Tmax of 1

----------
Field: AUC/D. Provide a value for each of the substances that follow.
- runDescription: Pharmacokinetic studies in Beagle dogs after oral administration of SNAC-based tablets
- Format: in vivo
- conditionContext: dog, in vivo, po
- Experimental: To be able to evaluate oral exposure following tablet dosing, tablet compositions comprising the test substance and SNAC (sodium N-(8-(2-hydroxybenzoyl)amino)caprylate) were prepared by mixing test substance with roller compacted SNAC and magnesium stearate as, e.g., described in WO 2019/149880. […] Plasma concentration of the GLP-1 receptor-amylin receptor co-agonists were determined using LCMS. Individual plasma concentration-time profiles were analysed by a non-compartmental model in WinNonlin v. […]
Starred links: 1 amine or outer side, 2 acyl side, 3 side chain; linkers in the order of their positions; H or OH if unused. Non-standard residues stand in square brackets, D forms with d. Groups on a side chain read outwards from the residue. *: point of attachment. C20 diacid = O=C(O)CCCCCCCCCCCCCCCCCCC(=O)*; C18 diacid = O=C(O)CCCCCCCCCCCCCCCCC(=O)*; C16 diacid = O=C(O)CCCCCCCCCCCCCCC(=O)*; γGlu = O=C(O)[C@H](CCC(=O)[*:2])N[*:1]; εLys = N[C@@H](CCCCN[*:1])C(=O)[*:2]; Trx = NC[C@H]1CC[C@H](C(=O)O)CC1; AEEA = NCCOCCOCC(=O)O; Aib = CC(C)(N)C(=O)O; Ahx = NCCCCCC(=O)O
Number only, in kg·h/L; omit the unit.

Lab note: H-H[Aib]EGTFTSDVSK([AEEA-AEEA-γGlu-C16 diacid])YLEEQAAREFIAWLVRGRK([AEEA-AEEA-γGlu-C16 diacid])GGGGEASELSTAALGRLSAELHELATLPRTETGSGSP-NH2 [Compound 0528] gave AUC/D of 37.01

Lab note: H-H[Aib]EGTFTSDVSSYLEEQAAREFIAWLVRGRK([AEEA-AEEA-γGlu-Trx-C20 diacid])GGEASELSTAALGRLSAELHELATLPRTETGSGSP-NH2 [Compound 0512] gave AUC/D of 3.21

Lab note: H-H[Aib]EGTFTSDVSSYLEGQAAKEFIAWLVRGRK([εLys-AEEA-AEEA-γGlu-C18 diacid])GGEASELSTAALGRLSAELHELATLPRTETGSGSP-NH2 [Compound 0045] gave AUC/D of 10.90

Lab note: H-H[Aib]EGTFTSDVSRYLEEQAAREFIEWLVRGRK([AEEA-AEEA-γGlu-Trx-C20 diacid])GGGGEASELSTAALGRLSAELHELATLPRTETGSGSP-NH2 [Compound 0511] gave AUC/D of 3.80

Lab note: H-H[Aib]EGTFTSDVSK([Ahx-γGlu-γGlu-C16 diacid])YLEEQAARK([Ahx-γGlu-γGlu-C16 diacid])FIEWLVRGAAEASELSTAALGRLSAELHELATLPRTETGSGSP-NH2 [Compound 0630] gave AUC/D of 33.33

Lab note: H-H[Aib]EGTFTSDVSSYLEEQAAK([εLys-AEEA-AEEA-γGlu-Trx-C20 diacid])EFIEWLVRGRGEASELSTAALGRLSAELHELATLPRTETGSGSP-NH2 [Compound 0436] gave AUC/D of 15.00

Lab note: H-H[Aib]EGTFTSDVSSYLEEK([AEEA-AEEA-γGlu-Trx-C20 diacid])AAREFIAWLVRGRGGGGEASELSTAALGRLSAELHELATLPRTETGSGSP-NH2 [Compound 0265] gave AUC/D of 5.68

Lab note: H-H[Aib]EGTFTSDVSK([AEEA-AEEA-γGlu-C18 diacid])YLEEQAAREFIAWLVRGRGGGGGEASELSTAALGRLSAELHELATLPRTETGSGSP-NH2 [Compound 0640] gave AUC/D of 7.57

Lab note: H-H[Aib]EGTFTSDK([AEEA-AEEA-γGlu-C16 diacid])SSYLEEQAAREFIAWLVRGRGGGGGASELSTAALGRLSK([AEEA-AEEA-γGlu-C16 diacid])ELHELATLPRTETGSGSP-NH2 [Compound 0292] gave AUC/D of 65.29

Lab note: H-H[Aib]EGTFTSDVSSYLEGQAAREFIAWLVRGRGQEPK([AEEA-AEEA-γGlu-C20 diacid])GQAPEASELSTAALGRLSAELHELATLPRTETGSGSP-NH2 [Compound 0529] gave AUC/D of 19.71

Lab note: H-H[Aib]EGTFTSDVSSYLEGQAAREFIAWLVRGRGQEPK([AEEA-AEEA-γGlu-C18 diacid])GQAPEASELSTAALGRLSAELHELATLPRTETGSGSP-NH2 [Compound 0084] gave AUC/D of 15.16
